All values here come from ChEMBL document CHEMBL2169827.

target: Cannabinoid receptor 1 (Homo sapiens, UniProt P21554); assay: Displacement of [3H]-CP55940 from human recombinant CB1 receptor expressed in CHO cells membrane by scintillation counting
Sequence (P21554 whole entry): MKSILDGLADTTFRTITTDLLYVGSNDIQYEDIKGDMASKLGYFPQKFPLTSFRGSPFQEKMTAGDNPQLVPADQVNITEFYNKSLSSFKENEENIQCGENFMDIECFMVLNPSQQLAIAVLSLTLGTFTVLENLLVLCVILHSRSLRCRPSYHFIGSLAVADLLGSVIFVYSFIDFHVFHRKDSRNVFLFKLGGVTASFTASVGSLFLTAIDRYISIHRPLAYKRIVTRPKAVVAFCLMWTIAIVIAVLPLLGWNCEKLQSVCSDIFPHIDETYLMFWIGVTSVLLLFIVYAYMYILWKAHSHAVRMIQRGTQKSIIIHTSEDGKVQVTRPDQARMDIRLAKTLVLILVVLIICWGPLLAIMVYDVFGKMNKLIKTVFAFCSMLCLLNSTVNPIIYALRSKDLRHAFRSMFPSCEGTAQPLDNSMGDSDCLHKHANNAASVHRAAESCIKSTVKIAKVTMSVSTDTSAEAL
pKi: −log10 of the molar value.
assay_readout: pKi

[[record]]
molecule = "CCCCCn1cc(C(=O)NC23CC4CC(CC(C4)C2)C3)c(=O)c(-c2ccncc2)c1C"
result_comparator = "<"
reading = 6.00

[[record]]
molecule = "CCCCCn1cc(C(=O)NC23CC4CC(CC(C4)C2)C3)c(=O)c(-c2ccc(CC)cc2)c1C"
result_comparator = "<"
reading = 6.00

[[record]]
molecule = "CCCCCn1cc(C(=O)NC2C3CC4CC(C3)CC2C4)c(=O)cc1C(C)(C)C (stereo not given)"
result_comparator = "="
reading = 6.25

[[record]]
molecule = "CCCCCn1cc(C(=O)Nc2ccccc2)c(=O)cc1C(C)(C)C"
result_comparator = "="
reading = 7.06

[[record]]
molecule = "Cc1cc(=O)c(C(=O)NC23CC4CC(CC(C4)C2)C3)cn1CC1CCOCC1"
result_comparator = "<"
reading = 6.00

[[record]]
molecule = "CCCCCn1cc(C(=O)NC(C)C23CC4CC(CC(C4)C2)C3)c(=O)cc1C (racemic)"
result_comparator = "<"
reading = 6.00

[[record]]
molecule = "CCCCCn1cc(C(=O)NCC23CC4CC(CC(C4)C2)C3)c(=O)cc1C(C)(C)C"
result_comparator = "<"
reading = 6.00

[[record]]
molecule = "CCCCCn1cc(C(=O)NCC2CC2)c(=O)cc1C(C)(C)C"
result_comparator = "="
reading = 6.75

[[record]]
molecule = "CCCCCn1cc(C(=O)NCC23CC4CC(CC(C4)C2)C3)c(=O)cc1C"
result_comparator = "<"
reading = 6.00

[[record]]
molecule = "Cc1cc(=O)c(C(=O)NC23CC4CC(CC(C4)C2)C3)cn1CCCC(F)(F)F"
result_comparator = "<"
reading = 6.00

[[record]]
molecule = "CCCCCn1cc(C(=O)NC23CC4CC(CC(C4)C2)C3)c(=O)c(C2CC2)c1C"
result_comparator = "="
reading = 6.98

[[record]]
molecule = "CCCCCn1cc(C(=O)NC23CC4CC(CC(C4)C2)C3)c(=O)c(I)c1C"
result_comparator = "="
reading = 6.71

[[record]]
molecule = "CCCCCn1cc(C(=O)NC2CCCCC2)c(=O)cc1C"
result_comparator = "<"
reading = 6.00

[[record]]
molecule = "CCCCCn1cc(C(=O)NC(C)C23CC4CC(CC(C4)C2)C3)c(=O)cc1C(C)(C)C (racemic)"
result_comparator = "="
reading = 6.26

[[record]]
molecule = "CCCCCn1cc(C(=O)NC2C3CC4CC(C3)CC2C4)c(=O)cc1C (stereo not given)"
result_comparator = "<"
reading = 6.00


###

Reported values of Ki for individual entries
biological target: Cannabinoid receptor 2 (Homo sapiens, UniProt P34972); test: Displacement of [3H]-CP55940 from human recombinant CB2 receptor expressed in CHO cells membrane by scintillation counting
Sequence (P34972 whole entry): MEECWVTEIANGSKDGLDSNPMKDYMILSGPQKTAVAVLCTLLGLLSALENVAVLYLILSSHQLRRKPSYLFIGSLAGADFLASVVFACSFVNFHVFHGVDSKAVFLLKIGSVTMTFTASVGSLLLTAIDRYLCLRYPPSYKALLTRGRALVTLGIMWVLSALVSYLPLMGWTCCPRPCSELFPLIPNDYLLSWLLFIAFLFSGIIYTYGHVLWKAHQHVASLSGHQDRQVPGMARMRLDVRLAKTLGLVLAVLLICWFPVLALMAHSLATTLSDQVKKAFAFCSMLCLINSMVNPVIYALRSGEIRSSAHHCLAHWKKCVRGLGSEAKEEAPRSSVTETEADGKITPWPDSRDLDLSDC
assay_readout: Ki (nM)

[[record]]
compound = "CCCCCn1cc(C(=O)NC23CC4CC(CC(C4)C2)C3)c(=O)c(-c2cccc(C(C)=O)c2)c1C"
result_units = "nM"
result_comparator = ">"
reading = 1000

[[record]]
compound = "Cc1cc(=O)c(C(=O)NC23CC4CC(CC(C4)C2)C3)cn1CCC1OCCO1"
result_units = "nM"
result_comparator = ">"
reading = 1000

[[record]]
compound = "CCCCCn1cc(C(=O)NC23CC4CC(CC(C4)C2)C3)c(=O)c(-c2ccc(C)cc2)c1C"
result_units = "nM"
result_comparator = ">"
reading = 1000

[[record]]
compound = "Cc1cc(=O)c(C(=O)NC23CC4CC(CC(C4)C2)C3)cn1CCC1CCOCC1"
result_units = "nM"
result_comparator = "="
reading = 196

[[record]]
compound = "CCCCCn1cc(C(=O)NC2C3CC4CC(C3)CC2C4)c(=O)cc1C (centres undefined)"
result_units = "nM"
result_comparator = "="
reading = 0.26

[[record]]
compound = "Cc1cc(=O)c(C(=O)NC23CC4CC(CC(C4)C2)C3)cn1CC1OCCO1"
result_units = "nM"
result_comparator = ">"
reading = 1000

[[record]]
compound = "CCCCCn1cc(C(=O)NCC23CC4CC(CC(C4)C2)C3)c(=O)cc1C(C)(C)C"
result_units = "nM"
result_comparator = "="
reading = 10.2

[[record]]
compound = "CCCCCn1cc(C(=O)NC(C)C23CC4CC(CC(C4)C2)C3)c(=O)cc1C(C)(C)C (racemic)"
result_units = "nM"
result_comparator = "="
reading = 9

[[record]]
compound = "CCCCCn1cc(C(=O)NC23CC4CC(CC(C4)C2)C3)c(=O)c(C2CC2)c1C"
result_units = "nM"
result_comparator = "="
reading = 13.4

[[record]]
compound = "COCCCn1cc(C(=O)NC23CC4CC(CC(C4)C2)C3)c(=O)cc1C"
result_units = "nM"
result_comparator = ">"
reading = 1000

[[record]]
compound = "CCCCCn1cc(C(=O)NCC2CC2)c(=O)cc1C"
result_units = "nM"
result_comparator = ">"
reading = 1000

[[record]]
compound = "CCCCCn1cc(C(=O)Nc2ccccc2)c(=O)cc1C(C)(C)C"
result_units = "nM"
result_comparator = "="
reading = 9.2

[[record]]
compound = "Cc1cc(=O)c(C(=O)NC23CC4CC(CC(C4)C2)C3)cn1CC1CCOCC1"
result_units = "nM"
result_comparator = "="
reading = 24.1

[[record]]
compound = "Cc1cc(=O)c(C(=O)NC23CC4CC(CC(C4)C2)C3)cn1CCCC(F)(F)F"
result_units = "nM"
result_comparator = "="
reading = 0.28

[[record]]
compound = "CCCCCn1cc(C(=O)NC23CC4CC(CC(C4)C2)C3)c(=O)c(-c2ccc(CC)cc2)c1C"
result_units = "nM"
result_comparator = "="
reading = 54.3

[[record]]
compound = "CCCCCn1cc(C(=O)NCC23CC4CC(CC(C4)C2)C3)c(=O)cc1C"
result_units = "nM"
result_comparator = "="
reading = 15.2

[[record]]
compound = "CCCCCn1cc(C(=O)Nc2ccccc2)c(=O)cc1C"
result_units = "nM"
result_comparator = ">"
reading = 1000

[[record]]
compound = "C/C=C\\n1cc(C(=O)NC23CC4CC(CC(C4)C2)C3)c(=O)cc1C"
result_units = "nM"
result_comparator = ">"
reading = 1000

[[record]]
compound = "CCCCCn1cc(C(=O)NC23CC4CC(CC(C4)C2)C3)c(=O)c(-c2ccncc2)c1C"
result_units = "nM"
result_comparator = "="
reading = 36.5

